// reported interaction score per item
- ASSAYED_TARGET: T1, 4H1350-AA
- T1 chain: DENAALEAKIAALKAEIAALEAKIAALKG
- MEASUREMENT_NOTES: two-hybrid library CCmax;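 note: natural log of median RNA to DNA barcode read ratio; higher means stronger binding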
- TEST_CONDITIONS: mean of both orientations
MEASURED_ENDPOINT: interaction score

> print(dat)
                                     binder  observed.measurement
1  DEIAALEAEIAALKAKNAALKAEIAALEG [4H121-AA]                 0.484
2  DENAALEAEIAALEAKIAALKAENAALKG [4H1068-AA]                 0.695
3  DENAALEAENAALEAKIAALKAEIAALEG [4H1193-AA]                  1.11
4  DENAALEAEIAALEAKNAALKAEIAALKG [4H1082-AA]                 0.509
5  DENAALEAEIAALKAEIAALKAKNAALEG [4H1103-AA]                -0.275
6  DENAALEAEIAALEAKIAALKAKIAALKG [4H1070-AA]                  1.96
7  DENAALEAENAALEAKIAALKAKIAALKG [4H1198-AA]                 0.496
8  DEIAALKAKNAALKAKNAALKAEIAALEG [4H1017-AA]                 -1.39
9  DEIAALEAENAALEAEIAALEAKIAALKG [4H134-AA]                  0.48
